Test system: RT-112
measurementNotes: Antiproliferative activity against FGFR3-amplified human RT112 cells after 72 hrs by CCK8/SRB assay
Type: functional, cell-based
runParameters: RT-112, 72 h
reportedEndpoint: IC50 (µM)
Lab book: enter the figure in µM, no units written.

Lookup result for Cc1ccc(C(=O)Nc2ccc(CN3CCN(C)CC3)c(C(F)(F)F)c2)cc1C#Cc1cnc2cccnn12 ; measured IC50: 0.737

Lookup result for CN1CCN(Cc2ccc(NC(=O)c3ccc(Cl)c(C#Cc4cncc(N5CCOCC5)c4)c3)cc2C(F)(F)F)CC1 ; measured IC50: 0.514

====

Test system: BaF3
measurementNotes: Antiproliferative activity against mouse BAF3 cells expressing CCDC6-RET fusion protein after 72 hrs by CCK8/SRB assay
Format: functional, cell-based
runParameters: BaF3, 72 h
reportedEndpoint: pIC50
Reminder that pIC50 is minus the log10 of a molar concentration.

Lookup result for CN1CCN(Cc2ccc(NC(=O)c3ccc(Cl)c(C#Cc4cncc(N5CCOCC5)c4)c3)cc2C(F)(F)F)CC1 ; measured pIC50: 7.43

====

testedSystem: Fibroblast growth factor receptor 4 (Homo sapiens, UniProt P22455)
Sequence (P22455 whole entry): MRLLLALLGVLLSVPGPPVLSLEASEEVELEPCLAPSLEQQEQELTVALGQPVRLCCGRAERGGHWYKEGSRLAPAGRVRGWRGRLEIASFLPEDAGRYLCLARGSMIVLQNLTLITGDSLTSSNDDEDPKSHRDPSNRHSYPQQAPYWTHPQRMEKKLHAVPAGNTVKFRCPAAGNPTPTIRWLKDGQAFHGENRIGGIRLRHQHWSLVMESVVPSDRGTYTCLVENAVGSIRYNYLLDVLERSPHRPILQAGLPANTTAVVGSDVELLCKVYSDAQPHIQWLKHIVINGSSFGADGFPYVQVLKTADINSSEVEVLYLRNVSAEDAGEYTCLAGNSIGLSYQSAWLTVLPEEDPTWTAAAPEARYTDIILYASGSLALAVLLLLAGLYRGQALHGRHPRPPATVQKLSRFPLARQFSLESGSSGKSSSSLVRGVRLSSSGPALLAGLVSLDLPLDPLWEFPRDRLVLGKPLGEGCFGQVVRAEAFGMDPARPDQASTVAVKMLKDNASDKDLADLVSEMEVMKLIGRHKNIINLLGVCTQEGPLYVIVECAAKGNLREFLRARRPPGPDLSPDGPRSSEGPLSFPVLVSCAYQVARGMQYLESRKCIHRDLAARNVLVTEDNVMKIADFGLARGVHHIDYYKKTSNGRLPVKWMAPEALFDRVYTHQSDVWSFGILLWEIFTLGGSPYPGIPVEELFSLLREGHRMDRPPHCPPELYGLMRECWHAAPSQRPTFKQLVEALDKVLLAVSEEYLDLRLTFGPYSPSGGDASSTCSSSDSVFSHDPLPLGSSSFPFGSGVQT
measurementNotes: Inhibition of recombinant FGFR4 (unknown origin) using poly (Glu,Tyr) 4:1 as substrate after 60 mins by ELISA
reportedEndpoint: IC50
Put down the number, then write its unit next to it.

Lookup result for CN1CCN(Cc2ccc(NC(=O)c3ccc(Cl)c(C#Cc4cncc(N5CCOCC5)c4)c3)cc2C(F)(F)F)CC1 ; measured IC50: 5.5 nM

====

testedSystem: Platelet-derived growth factor receptor alpha (Homo sapiens, UniProt P16234)
Sequence (P16234 whole entry): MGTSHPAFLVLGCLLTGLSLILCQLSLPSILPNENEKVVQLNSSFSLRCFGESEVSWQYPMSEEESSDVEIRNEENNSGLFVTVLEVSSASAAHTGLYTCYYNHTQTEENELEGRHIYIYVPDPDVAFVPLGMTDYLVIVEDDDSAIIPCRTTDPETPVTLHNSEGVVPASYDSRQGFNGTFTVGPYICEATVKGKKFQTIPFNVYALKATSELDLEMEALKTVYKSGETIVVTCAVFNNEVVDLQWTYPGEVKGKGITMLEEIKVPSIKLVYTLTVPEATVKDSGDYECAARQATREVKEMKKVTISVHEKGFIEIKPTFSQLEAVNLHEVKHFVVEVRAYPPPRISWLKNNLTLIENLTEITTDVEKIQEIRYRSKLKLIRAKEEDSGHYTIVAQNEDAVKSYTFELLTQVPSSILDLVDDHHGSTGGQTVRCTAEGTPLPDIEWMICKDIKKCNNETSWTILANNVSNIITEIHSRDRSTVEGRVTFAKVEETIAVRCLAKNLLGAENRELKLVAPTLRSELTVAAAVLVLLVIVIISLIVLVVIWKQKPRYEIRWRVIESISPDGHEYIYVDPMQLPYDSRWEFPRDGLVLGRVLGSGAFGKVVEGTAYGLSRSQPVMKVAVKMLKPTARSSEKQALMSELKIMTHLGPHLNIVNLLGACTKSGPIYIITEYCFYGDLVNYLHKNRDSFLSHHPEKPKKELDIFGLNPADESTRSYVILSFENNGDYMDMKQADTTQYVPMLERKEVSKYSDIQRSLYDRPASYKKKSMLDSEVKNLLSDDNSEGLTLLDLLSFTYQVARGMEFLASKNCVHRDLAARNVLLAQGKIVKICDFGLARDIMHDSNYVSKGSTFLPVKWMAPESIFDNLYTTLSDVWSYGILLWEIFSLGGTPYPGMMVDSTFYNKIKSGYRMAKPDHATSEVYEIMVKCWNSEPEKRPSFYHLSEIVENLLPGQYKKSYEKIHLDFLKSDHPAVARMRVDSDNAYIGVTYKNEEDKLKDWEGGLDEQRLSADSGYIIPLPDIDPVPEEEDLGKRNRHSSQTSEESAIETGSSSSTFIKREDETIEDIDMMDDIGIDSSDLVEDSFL
measurementNotes: Inhibition of recombinant PDGFRalpha (unknown origin) using poly (Glu,Tyr) 4:1 as substrate after 60 mins by ELISA
reportedEndpoint: IC50 (nM)
Lab book: enter the figure in nM, no units written.

Lookup result for CN1CCN(Cc2ccc(NC(=O)c3ccc(Cl)c(C#Cc4cncc(N5CCOCC5)c4)c3)cc2C(F)(F)F)CC1 ; measured IC50: 5.6

====

testedSystem: Vascular endothelial growth factor receptor 1 (Homo sapiens, UniProt P17948)
measurementNotes: Inhibition of recombinant VEGFR1 (unknown origin) using poly (Glu,Tyr) 4:1 as substrate after 60 mins by ELISA
reportedEndpoint: pIC50
Reminder that pIC50 is minus the log10 of a molar concentration.

Lookup result for CN1CCN(Cc2ccc(NC(=O)c3ccc(Cl)c(C#Cc4cncc(N5CCOCC5)c4)c3)cc2C(F)(F)F)CC1 ; measured pIC50: 7.20

====

Would you kindly list IC50 for each of these compounds?
testedSystem: Fibroblast growth factor receptor 1 (Homo sapiens)
measurementNotes: Inhibition of recombinant FGFR1 (unknown origin) using poly (Glu, Tyr) 4:1 after 60 mins by ELISA method
Lab book: enter the figure in nM, no units written.

Value (IC50, Fibroblast growth factor receptor 1 (Homo sapiens)) for record COc1cncc(C#Cc2cc(C(=O)Nc3ccc(CN4CCN(C)CC4)c(C(F)(F)F)c3)ccc2C)c1 = 12.8

Value (IC50, Fibroblast growth factor receptor 1 (Homo sapiens)) for record Cc1ccc(C(=O)Nc2ccc(CN3CCN(C)CC3)c(C(F)(F)F)c2)cc1C#Cc1cncc(N2CCN(C)CC2)c1 = 5.7

Value (IC50, Fibroblast growth factor receptor 1 (Homo sapiens)) for record CN1CCN(Cc2ccc(NC(=O)c3ccc(Cl)c(C#Cc4cncc(N5CCOCC5)c4)c3)cc2C(F)(F)F)CC1 = 0.5

Value (IC50, Fibroblast growth factor receptor 1 (Homo sapiens)) for record Cc1ccc(C(=O)Nc2ccc(CN3CCN(C)CC3)c(C(F)(F)F)c2)cc1C#Cc1cncc2ccccc12 = 1.2

====

Would you kindly list IC50 for each of these compounds?
testedSystem: Vascular endothelial growth factor receptor 2 (Homo sapiens, UniProt P35968)
Sequence (P35968 whole entry): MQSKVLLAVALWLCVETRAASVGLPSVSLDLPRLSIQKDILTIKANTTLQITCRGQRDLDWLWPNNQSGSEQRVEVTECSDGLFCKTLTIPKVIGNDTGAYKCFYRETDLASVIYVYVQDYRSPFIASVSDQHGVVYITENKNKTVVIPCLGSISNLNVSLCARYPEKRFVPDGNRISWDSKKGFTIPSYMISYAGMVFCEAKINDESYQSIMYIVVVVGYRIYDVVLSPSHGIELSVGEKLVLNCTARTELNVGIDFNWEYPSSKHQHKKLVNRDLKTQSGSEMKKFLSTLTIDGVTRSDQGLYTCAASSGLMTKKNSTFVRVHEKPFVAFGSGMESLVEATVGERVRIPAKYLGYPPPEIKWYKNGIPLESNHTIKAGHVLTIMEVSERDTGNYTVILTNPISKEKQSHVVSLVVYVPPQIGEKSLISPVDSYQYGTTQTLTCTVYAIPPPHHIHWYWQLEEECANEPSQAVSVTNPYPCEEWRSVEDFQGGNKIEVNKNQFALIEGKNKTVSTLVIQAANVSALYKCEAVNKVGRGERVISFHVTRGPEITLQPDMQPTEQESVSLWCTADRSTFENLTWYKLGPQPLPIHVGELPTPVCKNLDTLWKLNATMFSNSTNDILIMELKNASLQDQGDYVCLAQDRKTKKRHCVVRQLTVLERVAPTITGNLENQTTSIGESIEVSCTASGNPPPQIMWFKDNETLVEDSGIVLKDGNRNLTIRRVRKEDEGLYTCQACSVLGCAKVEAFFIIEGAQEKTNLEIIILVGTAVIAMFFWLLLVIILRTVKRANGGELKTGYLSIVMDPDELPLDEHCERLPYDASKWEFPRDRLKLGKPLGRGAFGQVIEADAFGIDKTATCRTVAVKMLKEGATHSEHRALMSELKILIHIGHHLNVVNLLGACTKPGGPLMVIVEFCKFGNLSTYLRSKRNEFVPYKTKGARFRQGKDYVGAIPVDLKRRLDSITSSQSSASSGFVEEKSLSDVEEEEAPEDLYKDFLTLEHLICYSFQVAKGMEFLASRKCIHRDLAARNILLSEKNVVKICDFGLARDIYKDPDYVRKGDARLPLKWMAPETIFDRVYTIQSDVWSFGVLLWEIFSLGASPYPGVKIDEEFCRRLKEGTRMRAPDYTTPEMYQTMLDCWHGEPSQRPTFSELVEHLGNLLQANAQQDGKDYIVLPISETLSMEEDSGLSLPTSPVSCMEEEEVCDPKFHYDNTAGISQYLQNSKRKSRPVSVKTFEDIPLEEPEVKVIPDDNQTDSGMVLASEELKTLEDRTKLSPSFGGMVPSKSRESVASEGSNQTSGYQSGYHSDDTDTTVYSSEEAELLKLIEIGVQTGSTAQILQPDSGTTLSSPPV
measurementNotes: Inhibition of recombinant KDR (unknown origin) using poly (Glu, Tyr) 4:1 after 60 mins by ELISA method
Lab book: enter the figure in µM, no units written.

Value (IC50, Vascular endothelial growth factor receptor 2 (Homo sapiens, UniProt P35968)) for record Cc1ccc(C(=O)Nc2ccc(CN3CCN(C)CC3)c(C(F)(F)F)c2)cc1C#Cc1cncc2c1ccn2C = 0.0635

Value (IC50, Vascular endothelial growth factor receptor 2 (Homo sapiens, UniProt P35968)) for record CN1CCN(Cc2ccc(NC(=O)c3cccc(C#Cc4cncc5ccccc45)c3)cc2C(F)(F)F)CC1 = 0.0025

Value (IC50, Vascular endothelial growth factor receptor 2 (Homo sapiens, UniProt P35968)) for record Cc1ccc(C(=O)Nc2ccc(CN3CCN(C)CC3)c(C(F)(F)F)c2)cc1C#Cc1cncc(NC(C)C)c1 = 0.0599

Value (IC50, Vascular endothelial growth factor receptor 2 (Homo sapiens, UniProt P35968)) for record Cc1ccc(C(=O)Nc2ccc(CN3CCN(C)CC3)c(C(F)(F)F)c2)cc1C#Cc1cncc2ccccc12 = 0.0791

Value (IC50, Vascular endothelial growth factor receptor 2 (Homo sapiens, UniProt P35968)) for record Cc1ccc(C(=O)Nc2ccc(CN3CCN(C)CC3)c(C(F)(F)F)c2)cc1C#Cc1cncc(N2CCOCC2)c1 = 0.0899

Value (IC50, Vascular endothelial growth factor receptor 2 (Homo sapiens, UniProt P35968)) for record CCN(CC)c1cncc(C#Cc2cc(C(=O)Nc3ccc(CN4CCN(C)CC4)c(C(F)(F)F)c3)ccc2C)c1 = 0.105

Value (IC50, Vascular endothelial growth factor receptor 2 (Homo sapiens, UniProt P35968)) for record CN1CCN(Cc2ccc(NC(=O)c3ccc(F)c(C#Cc4cncc5ccccc45)c3)cc2C(F)(F)F)CC1 = 0.0055

Value (IC50, Vascular endothelial growth factor receptor 2 (Homo sapiens, UniProt P35968)) for record COc1cncc(C#Cc2cc(C(=O)Nc3ccc(CN4CCN(C)CC4)c(C(F)(F)F)c3)ccc2C)c1 = 0.11

Value (IC50, Vascular endothelial growth factor receptor 2 (Homo sapiens, UniProt P35968)) for record CN1CCN(Cc2ccc(NC(=O)c3ccc(Cl)c(C#Cc4cncc5ccccc45)c3)cc2C(F)(F)F)CC1 = 0.0914

Value (IC50, Vascular endothelial growth factor receptor 2 (Homo sapiens, UniProt P35968)) for record CN1CCN(Cc2ccc(NC(=O)c3ccnc(C#Cc4cncc5ccccc45)c3)cc2C(F)(F)F)CC1 = 0.0065

Value (IC50, Vascular endothelial growth factor receptor 2 (Homo sapiens, UniProt P35968)) for record Cc1ccc(C(=O)Nc2ccc(CN3CCN(C)CC3)c(C(F)(F)F)c2)cc1C#Cc1cncc(N2CCN(C)CC2)c1 = 0.0218

Value (IC50, Vascular endothelial growth factor receptor 2 (Homo sapiens, UniProt P35968)) for record Cc1ccc(C(=O)Nc2ccc(CN3CCN(C)CC3)c(C(F)(F)F)c2)cc1C#Cc1cncc(N2CCCC2)c1 = 0.108

Value (IC50, Vascular endothelial growth factor receptor 2 (Homo sapiens, UniProt P35968)) for record CN1CCN(Cc2ccc(NC(=O)c3cncc(C#Cc4cncc5ccccc45)c3)cc2C(F)(F)F)CC1 = 0.0026

Value (IC50, Vascular endothelial growth factor receptor 2 (Homo sapiens, UniProt P35968)) for record CN1CCN(Cc2ccc(NC(=O)c3ccc(Cl)c(C#Cc4cncc(N5CCOCC5)c4)c3)cc2C(F)(F)F)CC1 = 0.0487

====

Test system: BaF3
measurementNotes: Antiproliferative activity against mouse BAF3 cells expressing CCDC6-RET […] mutant after 72 hrs by CCK8/SRB assay
Type: functional, cell-based
runParameters: BaF3, 72 h
reportedEndpoint: IC50

Lookup result for CN1CCN(Cc2ccc(NC(=O)c3ccc(Cl)c(C#Cc4cncc(N5CCOCC5)c4)c3)cc2C(F)(F)F)CC1 ; measured IC50: 33.4 nM

Lookup result for Cc1ccc(C(=O)Nc2ccc(CN3CCN(C)CC3)c(C(F)(F)F)c2)cc1C#Cc1cnc2cccnn12 [PONATINIB] ; measured IC50: 71.5 nM

====

testedSystem: Fibroblast growth factor receptor 1 (Homo sapiens, UniProt P11362)
Sequence (P11362 whole entry): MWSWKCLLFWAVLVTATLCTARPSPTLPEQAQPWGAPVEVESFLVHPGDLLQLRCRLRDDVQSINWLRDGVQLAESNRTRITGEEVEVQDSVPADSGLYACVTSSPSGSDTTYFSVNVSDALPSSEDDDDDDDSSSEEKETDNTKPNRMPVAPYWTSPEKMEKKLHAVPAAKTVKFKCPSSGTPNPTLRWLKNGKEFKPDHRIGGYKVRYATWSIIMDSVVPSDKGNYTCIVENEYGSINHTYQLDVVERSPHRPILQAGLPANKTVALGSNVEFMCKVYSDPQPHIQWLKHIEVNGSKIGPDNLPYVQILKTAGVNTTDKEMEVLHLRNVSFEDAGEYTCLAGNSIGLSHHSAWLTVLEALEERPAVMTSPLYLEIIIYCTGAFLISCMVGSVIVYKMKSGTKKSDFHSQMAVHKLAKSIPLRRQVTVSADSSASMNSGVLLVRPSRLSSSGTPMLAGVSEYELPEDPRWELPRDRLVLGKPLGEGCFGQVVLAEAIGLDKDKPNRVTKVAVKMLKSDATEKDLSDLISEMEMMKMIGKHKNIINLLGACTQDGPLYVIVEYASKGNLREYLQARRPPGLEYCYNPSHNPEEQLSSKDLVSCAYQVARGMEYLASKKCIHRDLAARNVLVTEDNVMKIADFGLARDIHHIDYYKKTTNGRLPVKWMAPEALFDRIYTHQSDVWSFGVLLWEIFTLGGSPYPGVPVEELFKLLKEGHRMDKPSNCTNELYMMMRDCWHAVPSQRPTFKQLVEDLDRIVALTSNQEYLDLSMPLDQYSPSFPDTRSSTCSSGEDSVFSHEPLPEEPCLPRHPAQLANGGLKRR
measurementNotes: Inhibition of recombinant FGFR1 (unknown origin) using poly (Glu, Tyr) 4:1 after 60 mins by ELISA method
reportedEndpoint: IC50

Lookup result for CN1CCN(Cc2ccc(NC(=O)c3ccc(C(F)(F)F)c(C#Cc4cncc5ccccc45)c3)cc2C(F)(F)F)CC1 ; measured IC50: > 100 nM

Lookup result for CC(C)c1ccc(C(=O)Nc2ccc(CN3CCN(C)CC3)c(C(F)(F)F)c2)cc1C#Cc1cncc2ccccc12 ; measured IC50: > 100 nM

Lookup result for CN1CCN(Cc2ccc(NC(=O)c3cccc(C#Cc4cncc5ccccc45)n3)cc2C(F)(F)F)CC1 ; measured IC50: > 100 nM
